experiment: AUC (0 to t) in male BALB/c mouse at 10 mg/kg, po single administration measured upto 72 hrs by LC-MS/MS analysis; type: ADME, organism-based; details: in vivo
Quick reference: log10 AUC(0-t) at 72 h of the listed items.
Test readout: log10 AUC(0-t) at 72 h (log10 of the value in µg·h/mL)

INSERT INTO assay_data (structure, reading) VALUES
  ('CS(=O)(=O)c1ccc(-c2nc(C(=O)NCc3cn(-c4cc(C(F)(F)F)ccn4)nn3)cs2)cc1', 1.70),
  ('C[C@H](NC(=O)c1csc(-c2ccc(S(C)(=O)=O)cc2)n1)c1cn(-c2cc(C(F)(F)F)ccn2)nn1', 2.03),
  ('C[C@H](NC(=O)c1cnc(-c2ccc(S(C)(=O)=O)cc2)s1)c1cn(-c2cc(C(F)(F)F)ccn2)nn1', 3.06),
  ('C[C@@H](NC(=O)c1csc(-c2ccc(S(C)(=O)=O)cc2)n1)c1cn(-c2cc(C(F)(F)F)ccn2)nn1', 2.01),
  ('CS(=O)(=O)c1ccc(-c2nc(C(=O)NCc3cn(-c4cc(Br)ccn4)nn3)cs2)cc1', 0.81),
  ('CS(=O)(=O)c1ccc(-c2ncc(C(=O)NCc3cn(-c4cc(C(F)(F)F)ccn4)nn3)s2)cc1', 1.15),
  ('C[C@@H](NC(=O)c1cnc(-c2ccc(S(C)(=O)=O)cc2)s1)c1cn(-c2cc(C(F)(F)F)ccn2)nn1', 1.94);

* * *

assay: Metabolic stability in human liver microsomes assessed as half life; type: ADME, Microsome
half-life values, listed per item
Test readout: half-life

INSERT INTO measurements (structure, reading) VALUES
  ('CS(=O)(=O)c1ccc(-c2ncc(C(=O)NCc3cn(-c4cc(N5CCC(F)(F)CC5)ccn4)nn3)s2)cc1', '1.33 h'),
  ('CS(=O)(=O)c1ccc(-c2nc(C(=O)NCc3cn(-c4cc(NC5CC(F)(F)C5)ccn4)nn3)cs2)cc1', '> 2 h'),
  ('CS(=O)(=O)c1ccc(-c2nc(C(=O)NCc3cn(-c4cc(C(F)(F)F)ccn4)nn3)cs2)cc1', '> 2 h'),
  ('C[C@@H](NC(=O)c1csc(-c2ccc(S(C)(=O)=O)cc2)n1)c1cn(-c2cc(C(F)(F)F)ccn2)nn1', '> 2 h'),
  ('CS(=O)(=O)c1ccc(-c2nc(C(=O)NCc3cn(-c4cc(N5CCC(F)(F)CC5)ccn4)nn3)cs2)cc1', '0.535 h'),
  ('CS(=O)(=O)c1ccc(-c2ncc(C(=O)NCc3cn(-c4cc(NC5CC(F)(F)C5)ccn4)nn3)s2)cc1', '> 2 h'),
  ('C[C@H](NC(=O)c1csc(-c2ccc(S(C)(=O)=O)cc2)n1)c1cn(-c2cc(C(F)(F)F)ccn2)nn1', '> 2 h'),
  ('C[C@@H](NC(=O)c1cnc(-c2ccc(S(C)(=O)=O)cc2)s1)c1cn(-c2cc(C(F)(F)F)ccn2)nn1', '> 2 h'),
  ('CS(=O)(=O)c1ccc(-c2ncc(C(=O)NCc3cn(-c4cc(C(F)(F)F)ccn4)nn3)s2)cc1', '> 2 h'),
  ('C[C@H](NC(=O)c1cnc(-c2ccc(S(C)(=O)=O)cc2)s1)c1cn(-c2cc(C(F)(F)F)ccn2)nn1', '> 2 h');
